MEASURED TARGET: AgAbp1
ASSAY NOTES: SPOT peptide array binding signal intensity (averaged, normalized) (arbitrary units (background-subtracted, floor 0; scale differs between SH3 domains)); higher = stronger binding of the SH3 domain to the peptide
Decision: SPOT peptide array binding signal intensity compared against 8; not below it gives yes, below it gives no.

>>> class_name("VPPVPLPFGIPPFPM")
"no"
>>> class_name("GTIARPLFLVVLFFI")
"no"
>>> class_name("LASNSPPVYPKRIRH")
"yes"
>>> class_name("LLLLFVPDSPYDPAI")
"no"
>>> class_name("RKRAPTPPAPSRSEK")
"yes"

Please find the next binder below.
Is reported SPOT peptide array binding signal intensity greater than or equal to 8 here: VRTRRRPPPPPIPST
yes
